Molecular target: site-specifically biotinylated C3b (human, UniProt P01024 23-667; P01024 749-1663, site-specifically biotinylated with EZ-link Maleimide-PEG2-biotin)
Sequence (P01024 23-667, chain 1 of 2): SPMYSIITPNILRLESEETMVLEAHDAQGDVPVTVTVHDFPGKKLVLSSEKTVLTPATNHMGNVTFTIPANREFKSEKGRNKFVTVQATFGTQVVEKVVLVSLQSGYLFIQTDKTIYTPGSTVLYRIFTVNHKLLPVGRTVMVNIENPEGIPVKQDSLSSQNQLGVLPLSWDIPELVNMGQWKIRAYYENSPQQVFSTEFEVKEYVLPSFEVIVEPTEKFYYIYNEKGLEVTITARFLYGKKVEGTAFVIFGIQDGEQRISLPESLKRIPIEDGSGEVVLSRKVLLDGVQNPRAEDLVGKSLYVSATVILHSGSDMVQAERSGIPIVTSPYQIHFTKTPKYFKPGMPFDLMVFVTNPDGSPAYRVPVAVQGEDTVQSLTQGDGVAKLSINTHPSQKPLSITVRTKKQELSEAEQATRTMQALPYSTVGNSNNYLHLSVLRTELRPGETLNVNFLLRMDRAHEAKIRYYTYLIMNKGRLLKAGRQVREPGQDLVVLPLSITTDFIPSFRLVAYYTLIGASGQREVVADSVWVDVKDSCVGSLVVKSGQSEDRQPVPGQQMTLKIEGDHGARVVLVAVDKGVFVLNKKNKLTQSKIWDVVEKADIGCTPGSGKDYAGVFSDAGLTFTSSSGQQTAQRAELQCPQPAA
Sequence (P01024 749-1663, chain 2 of 2): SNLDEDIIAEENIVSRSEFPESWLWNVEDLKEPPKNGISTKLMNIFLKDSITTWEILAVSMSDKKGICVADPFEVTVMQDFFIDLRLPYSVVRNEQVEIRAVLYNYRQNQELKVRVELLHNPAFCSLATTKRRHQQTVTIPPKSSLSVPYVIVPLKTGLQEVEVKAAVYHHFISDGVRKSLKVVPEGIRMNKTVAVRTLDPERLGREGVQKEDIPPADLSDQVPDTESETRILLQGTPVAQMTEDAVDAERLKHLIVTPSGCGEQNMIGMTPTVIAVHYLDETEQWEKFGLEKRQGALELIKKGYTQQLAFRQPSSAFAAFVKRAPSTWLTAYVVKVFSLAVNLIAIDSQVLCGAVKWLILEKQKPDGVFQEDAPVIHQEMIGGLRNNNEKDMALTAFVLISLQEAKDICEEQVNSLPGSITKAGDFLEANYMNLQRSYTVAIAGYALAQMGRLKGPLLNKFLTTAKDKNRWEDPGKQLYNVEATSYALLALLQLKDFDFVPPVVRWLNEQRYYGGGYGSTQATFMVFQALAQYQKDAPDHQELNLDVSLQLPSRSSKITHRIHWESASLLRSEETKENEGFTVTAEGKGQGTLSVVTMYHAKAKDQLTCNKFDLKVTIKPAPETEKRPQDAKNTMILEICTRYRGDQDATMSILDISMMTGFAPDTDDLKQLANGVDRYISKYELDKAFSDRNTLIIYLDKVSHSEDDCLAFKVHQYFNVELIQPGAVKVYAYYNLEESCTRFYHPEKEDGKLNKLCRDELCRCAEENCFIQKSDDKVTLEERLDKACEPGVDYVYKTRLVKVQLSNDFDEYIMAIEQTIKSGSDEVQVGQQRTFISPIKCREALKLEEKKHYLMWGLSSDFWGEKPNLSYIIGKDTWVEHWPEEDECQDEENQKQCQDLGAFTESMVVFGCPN
Test: SPR
Reported Metric: pKd
Lab note: report pKd as minus log10 of the concentration in molar units, number only.

Input: For ENLYFQGGSGSGSGICVWQDWGAHRCT (designed binder, labeled with the dye reagent Episentec NHS-B23 (5-fold molar excess)) [B23 dye-labeled TRX-4W9A] , what is its reported pKd?
Output: 6.25
